target: PTPN2 (Mus musculus); construct: HiBiT; host or cells: B16F10.4; assay: HiBiT PTPN2 degradation in B16F10.4 cells, 24 hours; assay type: cell-based
Sequence (Q06180 whole entry): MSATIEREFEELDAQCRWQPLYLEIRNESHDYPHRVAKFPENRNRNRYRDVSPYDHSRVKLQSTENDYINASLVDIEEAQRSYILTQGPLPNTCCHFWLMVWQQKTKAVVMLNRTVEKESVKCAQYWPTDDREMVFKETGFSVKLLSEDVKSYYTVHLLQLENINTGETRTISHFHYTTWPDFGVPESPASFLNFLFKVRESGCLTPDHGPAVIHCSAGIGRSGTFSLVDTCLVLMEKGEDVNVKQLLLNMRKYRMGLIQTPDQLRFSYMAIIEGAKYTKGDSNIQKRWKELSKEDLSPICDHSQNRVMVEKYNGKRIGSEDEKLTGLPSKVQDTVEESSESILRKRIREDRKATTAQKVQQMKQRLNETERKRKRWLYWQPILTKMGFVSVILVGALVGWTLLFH
Task for the reader: assign each of the following molecules its reported DC50.

Reference set, count: 5
Q) Field request: DC50 | item: Cn1c(=O)n(C2CCC(=O)NC2=O)c2ccc(-c3cc4cnn(CC(=O)Nc5ccc6c(F)c(N7CC(=O)NS7(=O)=O)c(O)cc6c5)c4cc3F)cc21 (stereo not drawn)
A) < 50 nM

Q) Field request: DC50 | item: Cn1c(=O)n(C2CCC(=O)NC2=O)c2ccc(C3CCN(CC(=O)Nc4ccc5c(F)c(N6CC(=O)NS6(=O)=O)c(O)cc5c4)CC3=O)cc21 (stereo not drawn)
A) 150 to 500 nM

Q) Field request: DC50 | item: Cc1cc(CC(=O)Nc2ccc3c(F)c(N4CC(=O)NS4(=O)=O)c(O)cc3c2)ccc1Oc1ccc2c(c1)n(C)c(=O)n2C1CCC(=O)NC1=O (stereo not drawn)
A) 50 to 150 nM

Q) Field request: DC50 | item: CCn1nc(C2CCC(=O)NC2=O)c2ccc(C3CCN(CC(=O)Nc4ccc5c(F)c(N6CC(=O)NS6(=O)=O)c(O)cc5c4)CC3(F)F)cc21 (stereo not drawn)
A) 150 to 500 nM

Q) Field request: DC50 | item: Cn1c(=O)n(C2CCC(=O)NC2=O)c2ccc(-c3cccc(CC(=O)Nc4ccc5c(F)c(N6CC(=O)NS6(=O)=O)c(O)cc5c4)c3)cc21 (stereo not drawn)
A) ≥ 500 nM

With those in mind, consider the next molecule.
Q) Field request: DC50 | item: Cn1c(=O)n(C2CCC(=O)NC2=O)c2ccc(N3CCN(CC(=O)Nc4ccc5c(F)c(N6CC(=O)NS6(=O)=O)c(O)cc5c4)C(=O)C3)cc21 (stereo not drawn)
A) ≥ 500 nM
